# assayProcedure: Theoretical water droplet contact angle on the oil surface (Young's wetting equation)
# Assay type: physicochemical
# conditionSummary: calculated by Young's wetting equation
# key: entry, value: Theoretical contact angle (water droplet on oil surface)

// worked examples, Theoretical contact angle (water droplet on oil surface) included
compound	testResult
FC(F)(F)C(F)(F)C(F)(F)C(F)(F)C(F)(F)C(F)(F)F	111° ^
FC(F)(F)C(F)(F)C(F)(F)C(F)(F)C(F)(F)C(F)(F)C(F)(F)C(F)(F)Br [Perflubron, perfluorooctyl bromide]	113°

IN: Recorded Theoretical contact angle (water droplet on oil surface) for FC(F)(F)C(F)(F)C(F)(F)C(F)(F)C(F)(F)C(F)(F)C(F)(F)C(F)(F)F , please?
OUT: 113° ^

IN: Also CCCCCCCCCCCC [dodecane, reference compound] ?
OUT: 110 °

IN: Also FC(F)(F)C(F)(F)C(F)(F)C(F)(F)C(F)(F)C(F)(F)C(F)(F)F ?
OUT: 112°^
